Target: CD28 (human) (UniProt P10747)
Test: flow cytometry, transfected cells
REPORTED_ENDPOINT: MFI (MFI)

[[record]]
binder = "ICOSL ECD-Fc N52Q/N119Q/N155Q (Fc fusion) DTQEKEVRAMVGSDVELSCACPEGSRFDLNDVYVYWQTSESKTVVTYHIPQQSSLENVDSRYRNRALMSPAGMLRGDFSLRLFNVTPQDEQKFHCLVLSQSLGFQEVLSVEVTLHVAAQFSVPVVSAPHSPSQDELTFTCTSINGYPRPNVYWIQKTDNSLLDQALQNDTVFLNMRGLYDVVSVLRIARTPSVNIGCCIENVLLQQNLTVGSQTGNDIGERDKITENPVSTGEKNAAT"
data_value = 552

[[record]]
binder = "ICOSL-Fc N52R/N57L/Q100S (Fc fusion) DTQEKEVRAMVGSDVELSCACPEGSRFDLNDVYVYWQTSESKTVVTYHIPQRSSLELVDSRYRNRALMSPAGMLRGDFSLRLFNVTPQDEQKFHCLVLSSSLGFQEVLSVEVTLHVAANFSVPVVSAPHSPSQDELTFTCTSINGYPRPNVYWINKTDNSLLDQALQNDTVFLNMRGLYDVVSVLRIARTPSVNIGCCIENVLLQQNLTVGSQTGNDIGERDKITENPVSTGEKNAAT"
data_value = 112000

[[record]]
binder = "ICOSL-Fc N52R/N57Y/Q100S (Fc fusion) DTQEKEVRAMVGSDVELSCACPEGSRFDLNDVYVYWQTSESKTVVTYHIPQRSSLEYVDSRYRNRALMSPAGMLRGDFSLRLFNVTPQDEQKFHCLVLSSSLGFQEVLSVEVTLHVAANFSVPVVSAPHSPSQDELTFTCTSINGYPRPNVYWINKTDNSLLDQALQNDTVFLNMRGLYDVVSVLRIARTPSVNIGCCIENVLLQQNLTVGSQTGNDIGERDKITENPVSTGEKNAAT"
data_value = 133000

[[record]]
binder = "ICOSL-Fc N52R/N57Y/Q100R (Fc fusion) DTQEKEVRAMVGSDVELSCACPEGSRFDLNDVYVYWQTSESKTVVTYHIPQRSSLEYVDSRYRNRALMSPAGMLRGDFSLRLFNVTPQDEQKFHCLVLSRSLGFQEVLSVEVTLHVAANFSVPVVSAPHSPSQDELTFTCTSINGYPRPNVYWINKTDNSLLDQALQNDTVFLNMRGLYDVVSVLRIARTPSVNIGCCIENVLLQQNLTVGSQTGNDIGERDKITENPVSTGEKNAAT"
data_value = 3280

[[record]]
binder = "ICOSL-Fc N52G/N57V (Fc fusion) DTQEKEVRAMVGSDVELSCACPEGSRFDLNDVYVYWQTSESKTVVTYHIPQGSSLEVVDSRYRNRALMSPAGMLRGDFSLRLFNVTPQDEQKFHCLVLSQSLGFQEVLSVEVTLHVAANFSVPVVSAPHSPSQDELTFTCTSINGYPRPNVYWINKTDNSLLDQALQNDTVFLNMRGLYDVVSVLRIARTPSVNIGCCIENVLLQQNLTVGSQTGNDIGERDKITENPVSTGEKNAAT"
data_value = 69100

